Data provenance: patent US9493432B2

# study.system: human orexin receptor 2 (Homo sapiens (Human), UniProt O43614)
# Sequence (O43614 whole entry): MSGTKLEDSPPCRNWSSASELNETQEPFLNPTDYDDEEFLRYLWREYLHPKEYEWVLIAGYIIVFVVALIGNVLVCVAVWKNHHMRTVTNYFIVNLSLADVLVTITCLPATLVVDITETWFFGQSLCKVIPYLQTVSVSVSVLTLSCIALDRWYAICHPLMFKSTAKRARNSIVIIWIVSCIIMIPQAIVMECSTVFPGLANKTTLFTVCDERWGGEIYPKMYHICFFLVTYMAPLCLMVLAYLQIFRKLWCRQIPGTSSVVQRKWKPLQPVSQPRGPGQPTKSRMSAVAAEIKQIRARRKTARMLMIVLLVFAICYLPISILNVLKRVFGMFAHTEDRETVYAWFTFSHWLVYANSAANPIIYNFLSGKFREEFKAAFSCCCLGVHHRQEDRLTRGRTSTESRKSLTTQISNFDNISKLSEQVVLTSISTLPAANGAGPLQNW
# assay.comment: Orexin antagonist activity, intracellular calcium FLIPR assay (orexin receptor 2)
# Assay type: cell-based
# experimental.context: RBL-2H3 cells stably expressing human orexin receptor 2; Ca2+ dye FLIPR; compound 15 minutes before orexin-A at approximately 80% maximal response; read-out: Human Orexin2R IC50
result.type: IC50 (nM)
The figure you give is taken to be in nM; do not add the unit.

What value of IC50 has been reported for the following compound? COc1ccc(OC)c(C(=O)N[C@H]2CCC[C@@H]2Nc2nc3ccc(F)cc3s2)c1 [Example 41] 2100

Thanks! And Cc1ccc(-n2nccn2)c(C(=O)N[C@H]2CCC[C@@H]2Nc2nc3ccc(F)cc3s2)c1 [Example 16] ? 2000

###

# study.system: human orexin receptor 1 (Homo sapiens (Human))
# assay.comment: Orexin antagonist activity, intracellular calcium FLIPR assay (orexin receptor 1)
# Assay type: cell-based
# experimental.context: RBL-2H3 cells stably expressing human orexin receptor 1; Ca2+ dye FLIPR; compound 15 minutes before orexin-A at approximately 80% maximal response; read-out: Human Orexin1R IC50
result.type: IC50 (nM)
Response body: numeric value in nM, unit text excluded.

Tell me the measured IC50 of O=C(N[C@H]1CCC[C@@H]1Nc1nc2ccc(F)cc2s1)c1ccccc1-n1nccn1 , please. 11

Now try O=C(N[C@H]1CCC[C@@H]1Nc1nc2ccc(F)cc2s1)c1ccccc1C1CC1 . 870

Another compound: O=C(NC1CC(F)(F)CC1Nc1nc2ccc(F)cc2s1)c1ccccc1-n1nccn1 (single isomer, unassigned) [Example 104] 13

Quick one: CCOc1ccc(C)cc1C(=O)NC1CCCC1Cc1ccc2ccccc2n1 (stereo not shown) [Example 31] 92

Cc1ccccc1C(=O)NC1CCC[C@@H]1Nc1nc2ccc(F)cc2s1 (stereo in doubt) ? 250

Follow-up entry: CC1(Nc2nc3ccc(F)cc3s2)CCCC1NC(=O)c1ccccc1-n1nccn1 (stereo not shown) 7

Now the same for COc1cccc(OC)c1C(=O)N[C@H]1CCC[C@@H]1Nc1nc2cc(F)ccc2s1 45

Now try CN(C(=O)c1ccccc1-n1cccn1)[C@H]1CCC[C@@H]1Nc1nc2ccc(F)cc2s1 . 1

And the next one, CN(C(=O)c1ccccc1-n1nccn1)[C@H]1CCC[C@@H]1Nc1nc2ccc(F)cc2s1 ? 1

Queued: O=C(N[C@H]1CCC[C@@H]1Nc1nc2cc(F)ccc2s1)c1ccccc1-n1nccn1 14

###

# study.system: human orexin receptor 2 (Homo sapiens (Human))
# assay.comment: Orexin antagonist activity, intracellular calcium FLIPR assay (orexin receptor 2)
# experimental.context: RBL-2H3 cells stably expressing human orexin receptor 2; Ca2+ dye FLIPR; compound 15 minutes before orexin-A at approximately 80% maximal response; read-out: Human Orexin2R IC50
result.type: IC50 (µM)
Write down the numeric answer in µM and omit the unit.

Reported IC50 for human orexin receptor 2 (Homo sapiens (Human)), given CN(C(=O)c1c(F)cccc1F)[C@H]1CCC[C@@H]1Nc1nc2ccc(F)cc2s1 ? 2.5

// repeat for O=C(N[C@H]1CCC[C@@H]1Nc1nc2ccc(F)cc2s1)c1ccccc1-n1cccn1 and report 4.3

###

Would you kindly list IC50 for each of these compounds?
# study.system: human orexin receptor 1 (Homo sapiens (Human), UniProt O43613)
# Sequence (O43613 whole entry): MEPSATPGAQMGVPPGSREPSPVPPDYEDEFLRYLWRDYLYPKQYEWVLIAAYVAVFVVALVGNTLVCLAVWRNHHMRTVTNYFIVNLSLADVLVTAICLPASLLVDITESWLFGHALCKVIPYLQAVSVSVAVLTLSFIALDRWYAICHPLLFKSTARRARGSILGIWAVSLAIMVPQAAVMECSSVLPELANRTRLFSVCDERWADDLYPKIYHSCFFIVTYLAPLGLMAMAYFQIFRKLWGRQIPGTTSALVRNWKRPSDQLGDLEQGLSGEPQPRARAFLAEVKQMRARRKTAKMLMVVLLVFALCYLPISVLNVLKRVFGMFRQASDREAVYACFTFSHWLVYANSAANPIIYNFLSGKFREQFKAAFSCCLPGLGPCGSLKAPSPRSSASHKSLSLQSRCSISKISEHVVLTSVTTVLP
# assay.comment: Orexin antagonist activity, intracellular calcium FLIPR assay (orexin receptor 1)
# experimental.context: RBL-2H3 cells stably expressing human orexin receptor 1; Ca2+ dye FLIPR; compound 15 minutes before orexin-A at approximately 80% maximal response; read-out: Human Orexin1R IC50
Note: unit nM is implicit; provide only the numeric part.

So what's the measured IC50 for this one? Cc1noc(-c2ccccc2C(=O)N(C)[C@H]2CCC[C@@H]2Nc2nc3ccc(F)cc3s2)n1 1

Again, but for COc1cccc(OC)c1C(=O)N[C@H]1CCC[C@H]1Nc1nc2ccccc2s1 12

Proceed to O=C(N[C@H]1CCC[C@@H]1Nc1nc2ccc(F)cc2s1)c1cc(Cl)ccc1-n1cccn1 38

Then Cc1noc(-c2ccccc2C(=O)N[C@H]2CCC[C@@H]2Nc2nc3ccc(F)cc3s2)n1 ? 14

And the next one, O=C(N[C@H]1CCC[C@@H]1Nc1nc2ccc(F)cc2s1)c1ccccc1Cl ? 11

And O=C(N[C@H]1CCC[C@@H]1Nc1nc2c(F)cc(F)cc2s1)c1ccccc1-n1nccn1 ? 14

Can you check O=C(N[C@H]1CCC[C@@H]1Nc1nc2c(Cl)cncc2s1)c1ccccc1-n1nccn1 next? 480

Next compound: Cc1ccc(-n2nccn2)c(C(=O)N[C@H]2CCC[C@@H]2Nc2nc3ccc(F)cc3s2)c1 13
